# EXPERIMENTAL_TARGET: Farnesyl protein transferase (FT) (Bos taurus, UniProt P29702+P49355)
# Construct: Partial purification of FT from bovine brain
# MEASUREMENT_DESCRIPTION: Farnesyl protein transferase (FT) inhibition assay
# CONDITIONS: partially purified FT, Gst-HRas substrate
Square brackets hold non-standard residues; d marks the D form. Peptide text beside a SMILES is read from it. Gly(NCH2CH2Ph) = O=C(O)CNCCc1ccccc1; Gly(N-cHex) = O=C(O)CNC1CCCCC1; NMeV = CN[C@H](C(=O)O)C(C)C; N(iPr)Gly = CC(C)NCC(=O)O; Nleu = CC(C)CNCC(=O)O
Quick rule for you: IC50 under 4 µM gets 1 (yes), anything else gets 0 (no).

These solved cases illustrate the format of a correct answer.
{"columns": ["MOLECULE", "ANSWER_LABEL"],
 "data": [
  ["CSCC[C@H](NC(=O)CN(CCc1ccccc1)C(=O)[C@@H](NC(=O)[C@@H](N)CS)C(C)C)C(=O)O [Semipeptoid 2] (H-CV[Gly(NCH2CH2Ph)]M-OH)", "1 (yes)"],
  ["CSCC[C@H](NC(=O)[C@H](Cc1ccccc1)NC(=O)CN(CC(C)C)C(=O)[C@@H](N)CS)C(=O)O [Semipeptoid 10] (H-C[Nleu]FM-OH)", "0 (no)"],
  ["CSCC[C@H](NC(=O)CN(Cc1ccccc1)C(=O)CN(CCN(C)C)C(=O)[C@@H](N)CS)C(=O)O [Semipeptoid 7]", "1 (yes)"]
]}

[Q] Quick check: does CSCC[C@H](NC(=O)[C@H](Cc1ccccc1)NC(=O)CN(C(=O)[C@@H](N)CS)C(C)C)C(=O)O [Semipeptoid 8] (H-C[N(iPr)Gly]FM-OH) have IC50 under 4 µM?
[A] 0 (no)

[Q] Quick check: does CSCC[C@H](NC(=O)CN(C(=O)[C@H](C(C)C)N(C)C(=O)[C@@H](N)CS)C1CCCCC1)C(=O)O [Semipeptoid 11] (H-C[NMeV][Gly(N-cHex)]M-OH) have IC50 under 4 µM?
[A] 1 (yes)

====

# EXPERIMENTAL_TARGET: Geranylgeranyl transferase-I (GGT) (Bos taurus, UniProt P29702+Q5EAD5)
# Construct: GGT was partially purified from bovine brain
# MEASUREMENT_DESCRIPTION: Geranylgeranyl transferase-I (GGT) inhibition assay
# CONDITIONS: partially purified GGT, Gst-HRas-CVLL substrate
# Description: The second assay estimated the selectivity of the inhibitor towards FT over a related enzyme, geranylgeranyl-protein-transferase-I (GGT), which transfers a C20 -isoprenoid to a thiol group of cysteine of a C-terminal CAAL (SEQ ID NO:17) peptide sequence derived from geranylgeranylpyrophosphate. Geranylgeranylation of normal cellular proteins is 5-10 times more common than farnesylation (Gibbs et al., Cell, 1994, 77: 175; Gibbs, Cell, 1991, 65: 1; Maltese,. FASEB J., 1990, 4: 3319). […]
Square brackets hold non-standard residues; d marks the D form. Peptide text beside a SMILES is read from it. Gly(N-cHex) = O=C(O)CNC1CCCCC1; NMeV = CN[C@H](C(=O)O)C(C)C; N(iPr)Gly = CC(C)NCC(=O)O; Nphe = O=C(O)CNCc1ccccc1
MEASURED_ATTRIBUTE: pIC50
pIC50 is a log-scale quantity: -log10 of the concentration expressed in molar.

Reported pIC50 for CSCC[C@H](NC(=O)[C@H](Cc1ccccc1)NC(=O)CN(C(=O)[C@@H](N)CS)C(C)C)C(=O)O [Semipeptoid 8] (H-C[N(iPr)Gly]FM-OH) was 3.81

Reported pIC50 for CSCC[C@H](NC(=O)CN(C(=O)[C@H](C(C)C)N(C)C(=O)[C@@H](N)CS)C1CCCCC1)C(=O)O [Semipeptoid 11] (H-C[NMeV][Gly(N-cHex)]M-OH) was 6.04

Reported pIC50 for CSCC[C@H](NC(=O)CN(Cc1ccccc1)C(=O)[C@@H](NC(=O)[C@@H](N)CS)C(C)C)C(=O)O [Semipeptoid 1] (H-CV[Nphe]M-OH) was 4.40

====

# EXPERIMENTAL_TARGET: Geranylgeranyl transferase-I (GGT) (Bos taurus, UniProt P29702+Q5EAD5)
# Construct: GGT was partially purified from bovine brain
# MEASUREMENT_DESCRIPTION: Geranylgeranyl transferase-I (GGT) inhibition assay
# CONDITIONS: partially purified GGT, Gst-HRas-CVLL substrate
Square brackets hold non-standard residues; d marks the D form. Peptide text beside a SMILES is read from it. N(3,4-(MeO)2phenethyl)Gly = COc1ccc(CCNCC(=O)O)cc1OC; Gly(NCH2CH2Ph) = O=C(O)CNCCc1ccccc1; Gly(N-cHex) = O=C(O)CNC1CCCCC1; N(iPr)Gly = CC(C)NCC(=O)O; Nphe = O=C(O)CNCc1ccccc1; Nleu = CC(C)CNCC(=O)O
MEASURED_ATTRIBUTE: pIC50
pIC50 is a log-scale quantity: -log10 of the concentration expressed in molar.

The following compounds have reported results that may help.
{"columns": ["COMPOUND", "EXPERIMENTAL_TARGET", "EXPERIMENTAL_RESULT"],
 "data": [
  ["CSCC[C@H](NC(=O)CN(C(=O)[C@@H](NC(=O)[C@@H](N)CS)C(C)C)C1CCCCC1)C(=O)O [Semipeptoid 4] (H-CV[Gly(N-cHex)]M-OH)", "Geranylgeranyl transferase-I (GGT) (Bos taurus, UniProt P29702+Q5EAD5)", 5.30],
  ["CSCC[C@H](NC(=O)CN(Cc1ccccc1)C(=O)CN(C(=O)[C@@H](N)CS)C(C)C)C(=O)O [Semipeptoid 5] (H-C[N(iPr)Gly][Nphe]M-OH)", "Geranylgeranyl transferase-I (GGT) (Bos taurus, UniProt P29702+Q5EAD5)", 3.72],
  ["CSCC[C@H](NC(=O)CN(Cc1ccccc1)C(=O)CN(CCN(C)C)C(=O)[C@@H](N)CS)C(=O)O", "Geranylgeranyl transferase-I (GGT) (Bos taurus, UniProt P29702+Q5EAD5)", 4.40]
]}

Kindly note: Geranylgeranyl transferase-I (GGT) (Bos taurus, UniProt P29702+Q5EAD5), CSCC[C@H](NC(=O)[C@H](Cc1ccccc1)NC(=O)CN(CC(C)C)C(=O)[C@@H](N)CS)C(=O)O [Semipeptoid 10] (H-C[Nleu]FM-OH) , pIC50 value reported: 3.62

Kindly note: Geranylgeranyl transferase-I (GGT) (Bos taurus, UniProt P29702+Q5EAD5), CSCC[C@H](NC(=O)CN(CCc1ccccc1)C(=O)[C@@H](NC(=O)[C@@H](N)CS)C(C)C)C(=O)O [Semipeptoid 2] (H-CV[Gly(NCH2CH2Ph)]M-OH) , pIC50 value reported: 4.52

Kindly note: Geranylgeranyl transferase-I (GGT) (Bos taurus, UniProt P29702+Q5EAD5), COc1ccc(CCN(CC(=O)N[C@@H](CCSC)C(=O)O)C(=O)[C@@H](NC(=O)[C@@H](N)CS)C(C)C)cc1OC [Semipeptoid 3] (H-CV[N(3,4-(MeO)2phenethyl)Gly]M-OH) , pIC50 value reported: 4.64

Kindly note: Geranylgeranyl transferase-I (GGT) (Bos taurus, UniProt P29702+Q5EAD5), COc1ccc(CCN(CC(=O)N[C@@H](CCSC)C(=O)O)C(=O)CN(C(=O)[C@@H](N)CS)C(C)C)cc1OC [Semipeptoid 6] (H-C[N(iPr)Gly][N(3,4-(MeO)2phenethyl)Gly]M-OH) , pIC50 value reported: 4.10
